Cited source: BigSolDB 2.1

Experimental parameters: in ethanol, 307.65 K

| Smiles str | solubility (mole fraction) |
| --- | --- |
| COc1ccc2nc(SCc3ncc(C)c(OC)c3C)[nH]c2c1 | 0.0775 |

----------
Experimental parameters: in ethyl acetate, 288.15 K
Observable: solubility (mole fraction)

| Smiles str | Val |
| --- | --- |
| COc1ccc2nc(SCc3ncc(C)c(OC)c3C)[nH]c2c1 | 0.0049 |

----------
Experimental parameters: in acetone, 280.35 K
Observable: solubility (mole fraction)

| Smiles str | Observable | Val |
| --- | --- | --- |
| COc1ccc2nc(SCc3ncc(C)c(OC)c3C)[nH]c2c1 | solubility (mole fraction) | 0.005 |

----------
Experimental parameters: in isopropanol, 303.15 K
Observable: solubility (mole fraction)

| Smiles str | Observable | Val |
| --- | --- | --- |
| COc1ccc2nc(SCc3ncc(C)c(OC)c3C)[nH]c2c1 | solubility (mole fraction) | 0.0172 |

----------
Experimental parameters: in n-propanol, 284.35 K

| Smiles str | solubility (mole fraction) |
| --- | --- |
| COc1ccc2nc(SCc3ncc(C)c(OC)c3C)[nH]c2c1 | 0.0101 |

----------
Experimental parameters: in n-propanol, 311.15 K
Observable: solubility (mole fraction)

| Smiles str | Observable | Val |
| --- | --- | --- |
| COc1ccc2nc(SCc3ncc(C)c(OC)c3C)[nH]c2c1 | solubility (mole fraction) | 0.0567 |

----------
Experimental parameters: in n-propanol, 315.15 K

| Smiles str | solubility (mole fraction) |
| --- | --- |
| COc1ccc2nc(SCc3ncc(C)c(OC)c3C)[nH]c2c1 | 0.0713 |

----------
Experimental parameters: in ethyl acetate, 296.65 K

| Smiles str | solubility (mole fraction) |
| --- | --- |
| COc1ccc2nc(SCc3ncc(C)c(OC)c3C)[nH]c2c1 | 0.0073 |

----------
Experimental parameters: in ethyl acetate, 280.35 K
Observable: solubility (mole fraction)

| Smiles str | Val |
| --- | --- |
| COc1ccc2nc(SCc3ncc(C)c(OC)c3C)[nH]c2c1 | 0.0033 |

----------
Experimental parameters: in methanol, 315.15 K
Observable: solubility (mole fraction)

| Smiles str | Val |
| --- | --- |
| COc1ccc2nc(SCc3ncc(C)c(OC)c3C)[nH]c2c1 | 0.138 |

----------
Experimental parameters: in acetone, 300.25 K
Observable: solubility (mole fraction)

| Smiles str | Val |
| --- | --- |
| COc1ccc2nc(SCc3ncc(C)c(OC)c3C)[nH]c2c1 | 0.0172 |

----------
Experimental parameters: in acetone, 288.15 K
Observable: solubility (mole fraction)

| Smiles str | Val |
| --- | --- |
| COc1ccc2nc(SCc3ncc(C)c(OC)c3C)[nH]c2c1 | 0.0083 |

----------
Experimental parameters: in acetone, 296.65 K

| Smiles str | solubility (mole fraction) |
| --- | --- |
| COc1ccc2nc(SCc3ncc(C)c(OC)c3C)[nH]c2c1 | 0.014 |

----------
Experimental parameters: in n-butanol, 311.15 K
Observable: solubility (mole fraction)

| Smiles str | Observable | Val |
| --- | --- | --- |
| COc1ccc2nc(SCc3ncc(C)c(OC)c3C)[nH]c2c1 | solubility (mole fraction) | 0.0661 |

----------
Experimental parameters: in n-butanol, 280.35 K

| Smiles str | solubility (mole fraction) |
| --- | --- |
| COc1ccc2nc(SCc3ncc(C)c(OC)c3C)[nH]c2c1 | 0.0103 |

----------
Experimental parameters: in acetone, 303.15 K
Observable: solubility (mole fraction)

| Smiles str | Val |
| --- | --- |
| COc1ccc2nc(SCc3ncc(C)c(OC)c3C)[nH]c2c1 | 0.0203 |

----------
Experimental parameters: in ethanol, 284.35 K

| Smiles str | solubility (mole fraction) |
| --- | --- |
| COc1ccc2nc(SCc3ncc(C)c(OC)c3C)[nH]c2c1 | 0.0189 |

----------
Experimental parameters: in isopropanol, 311.15 K
Observable: solubility (mole fraction)

| Smiles str | Val |
| --- | --- |
| COc1ccc2nc(SCc3ncc(C)c(OC)c3C)[nH]c2c1 | 0.0286 |

----------
Experimental parameters: in n-butanol, 315.15 K

| Smiles str | solubility (mole fraction) |
| --- | --- |
| COc1ccc2nc(SCc3ncc(C)c(OC)c3C)[nH]c2c1 | 0.0824 |

----------
Experimental parameters: in methanol, 288.15 K
Observable: solubility (mole fraction)

| Smiles str | Val |
| --- | --- |
| COc1ccc2nc(SCc3ncc(C)c(OC)c3C)[nH]c2c1 | 0.0239 |

----------
Experimental parameters: in n-butanol, 296.65 K
Observable: solubility (mole fraction)

| Smiles str | Val |
| --- | --- |
| COc1ccc2nc(SCc3ncc(C)c(OC)c3C)[nH]c2c1 | 0.0292 |

----------
Experimental parameters: in n-propanol, 319.65 K

| Smiles str | solubility (mole fraction) |
| --- | --- |
| COc1ccc2nc(SCc3ncc(C)c(OC)c3C)[nH]c2c1 | 0.0914 |

----------
Experimental parameters: in ethanol, 303.15 K

| Smiles str | solubility (mole fraction) |
| --- | --- |
| COc1ccc2nc(SCc3ncc(C)c(OC)c3C)[nH]c2c1 | 0.0606 |

----------
Experimental parameters: in isopropanol, 280.35 K
Observable: solubility (mole fraction)

| Smiles str | Val |
| --- | --- |
| COc1ccc2nc(SCc3ncc(C)c(OC)c3C)[nH]c2c1 | 0.0032 |

----------
Experimental parameters: in methanol, 300.25 K
Observable: solubility (mole fraction)

| Smiles str | Observable | Val |
| --- | --- | --- |
| COc1ccc2nc(SCc3ncc(C)c(OC)c3C)[nH]c2c1 | solubility (mole fraction) | 0.0559 |

----------
Experimental parameters: in ethyl acetate, 300.25 K
Observable: solubility (mole fraction)

| Smiles str | Val |
| --- | --- |
| COc1ccc2nc(SCc3ncc(C)c(OC)c3C)[nH]c2c1 | 0.0085 |

----------
Experimental parameters: in methanol, 311.15 K

| Smiles str | solubility (mole fraction) |
| --- | --- |
| COc1ccc2nc(SCc3ncc(C)c(OC)c3C)[nH]c2c1 | 0.11 |

----------
Experimental parameters: in methanol, 303.15 K

| Smiles str | solubility (mole fraction) |
| --- | --- |
| COc1ccc2nc(SCc3ncc(C)c(OC)c3C)[nH]c2c1 | 0.0668 |

----------
Experimental parameters: in n-butanol, 307.65 K

| Smiles str | solubility (mole fraction) |
| --- | --- |
| COc1ccc2nc(SCc3ncc(C)c(OC)c3C)[nH]c2c1 | 0.0549 |

----------
Experimental parameters: in n-propanol, 307.65 K
Observable: solubility (mole fraction)

| Smiles str | Observable | Val |
| --- | --- | --- |
| COc1ccc2nc(SCc3ncc(C)c(OC)c3C)[nH]c2c1 | solubility (mole fraction) | 0.047 |

----------
Experimental parameters: in n-butanol, 303.15 K

| Smiles str | solubility (mole fraction) |
| --- | --- |
| COc1ccc2nc(SCc3ncc(C)c(OC)c3C)[nH]c2c1 | 0.0425 |

----------
Experimental parameters: in isopropanol, 300.25 K

| Smiles str | solubility (mole fraction) |
| --- | --- |
| COc1ccc2nc(SCc3ncc(C)c(OC)c3C)[nH]c2c1 | 0.014 |

----------
Experimental parameters: in methanol, 292.25 K

| Smiles str | solubility (mole fraction) |
| --- | --- |
| COc1ccc2nc(SCc3ncc(C)c(OC)c3C)[nH]c2c1 | 0.0322 |

----------
Experimental parameters: in n-butanol, 292.25 K

| Smiles str | solubility (mole fraction) |
| --- | --- |
| COc1ccc2nc(SCc3ncc(C)c(OC)c3C)[nH]c2c1 | 0.0218 |

----------
Experimental parameters: in ethyl acetate, 307.65 K
Observable: solubility (mole fraction)

| Smiles str | Val |
| --- | --- |
| COc1ccc2nc(SCc3ncc(C)c(OC)c3C)[nH]c2c1 | 0.0122 |

----------
Experimental parameters: in ethanol, 315.15 K
Observable: solubility (mole fraction)

| Smiles str | Val |
| --- | --- |
| COc1ccc2nc(SCc3ncc(C)c(OC)c3C)[nH]c2c1 | 0.115 |

----------
Experimental parameters: in methanol, 319.65 K
Observable: solubility (mole fraction)

| Smiles str | Val |
| --- | --- |
| COc1ccc2nc(SCc3ncc(C)c(OC)c3C)[nH]c2c1 | 0.172 |

----------
Experimental parameters: in ethyl acetate, 315.15 K
Observable: solubility (mole fraction)

| Smiles str | Observable | Val |
| --- | --- | --- |
| COc1ccc2nc(SCc3ncc(C)c(OC)c3C)[nH]c2c1 | solubility (mole fraction) | 0.0165 |
